Experimental Target: T1, SUVH5 SRA domain (Arabidopsis, UniProt O82175 362-528)
T1 sequence: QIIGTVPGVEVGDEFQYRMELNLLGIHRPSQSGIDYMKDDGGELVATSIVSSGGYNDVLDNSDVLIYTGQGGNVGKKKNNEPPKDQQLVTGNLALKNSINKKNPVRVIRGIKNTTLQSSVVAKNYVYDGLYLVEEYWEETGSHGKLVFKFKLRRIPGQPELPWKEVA
Assay Overview: ITC; N = 0.52; ITC: 40 mM Tris-HCl pH 7.5, 50 mM NaCl, 2 mM b-mercaptoethanol, 25 C; FP: 20 mM Tris-HCl pH 7.5, 50 mM NaCl, 1 mM DTT, 20 C; EMSA: 25 mM Tris-HCl pH 7.5, 5% glycerol, 60 mM NaCl, 10 mM MgCl2, 0.4 mg/mL BSA, 2 mM DTT
Condition Summary: protein: recombinant; tags: His6-SUMO, cleaved with Ulp1; chain copies: 2; self-complementary, 2 copies of strand
Readout Kind: Kd

Exam item: What value of Kd has been reported for the following binder? fully-5hmCG duplex (ITC) (dsDNA, 5hmC at central CG, both strands) DNA 1: CAGCTCGAGCTG DNA 2: CAGCTCGAGCTG
Marked response: 1500 nM

Recorded values, source paper PMC4740795.
